assay-text: Effective permeability corrected for ionization
Format: ADME
// boundary case: Log Pe,max equal to -4 maps to not fulfilled; strictly smaller maps to fulfilled

Before answering, review these 3 worked examples.
{"columns": ["molecule", "discrete-label"],
 "data": [
  ["C=CCc1ccccc1OCC(O)CNC(C)C (stereo unspecified) [ALPRENOLOL]", "not fulfilled"],
  ["N=C(N)N/N=C/c1c(Cl)cccc1Cl [GUANABENZ]", "fulfilled"],
  ["CC(=O)CC(c1ccccc1)c1c(O)c2ccccc2oc1=O (stereo unspecified) [WARFARIN]", "not fulfilled"]
]}

[in] Criterion: Log Pe,max strictly below -4. Is it met by CC(C)Cc1ccc(C(C)C(=O)O)cc1 (stereo unspecified) [IBUPROFEN] ?
[out] not fulfilled

[in] Determine whether this molecule shows Log Pe,max lower than -4 (ties excluded): CC(C(=O)O)c1cccc(C(=O)c2ccccc2)c1 (stereo unspecified) [KETOPROFEN]
[out] not fulfilled

[in] I wonder whether O=C(O)c1ccccc1O [SALICYLIC ACID] has Log Pe,max below -4. Can you tell?
[out] not fulfilled

[in] Is the reported Log Pe,max for CC(C)(C)NC[C@H](O)COc1nsnc1N1CCOCC1 [TIMOLOL] strictly below -4?
[out] not fulfilled

[in] Strictly below -4 in Log Pe,max? CN(C)CCCN1c2ccccc2Sc2ccc(Cl)cc21 [CHLORPROMAZINE]
[out] not fulfilled

[in] Answer whether the molecule COCCc1ccc(OCC(O)CNC(C)C)cc1 (stereo unspecified) [METOPROLOL] has Log Pe,max strictly less than -4
[out] not fulfilled

[in] Log Pe,max strictly < -4 for this molecule? O=C1NC(=O)C(c2ccccc2)(c2ccccc2)N1 [PHENYTOIN]
[out] fulfilled

[in] Determine if O=C(O)Cc1ccccc1Nc1c(Cl)cccc1Cl [DICLOFENAC] shows Log Pe,max strictly lower than -4.
[out] not fulfilled
